Protocol summary: In vivo mouse pharmacokinetics
Condition: female, mouse, plasma, iv; CD-1 mice, i.v. 5 mg/kg; average (SD); read-out: elimination half-life (converted)
Recorded metric: half-life (h)
Answer format: numeric, h implied, no suffix.

Fill in: half-life of `COc1ccc2nccc(NC(=O)C3CCN(CCc4ccc(C(F)(F)F)cc4)CC3)c2n1` is ___
1.03

---

Test system: M. abscessus subsp. abscessus ATCC 19977 844-TMF^r-4 (GyrB M474I)
Protocol summary: MIC, resistant mutant
Format: cell-based, Mycobacterium abscessus
Condition: Mycobacteroides abscessus, ATCC19977
Recorded metric: MIC (µM)
The figure you give is taken to be in µM; do not add the unit.

# count of solved cases: 4
* CCNC(=O)Nc1nc2cc(-c3cnc(C(C)(C)O)nc3)c(F)c([C@H]3CCCO3)c2[nH]1 [SPR719] | 0.3
* CC[C@H]1OC(=O)[C@H](C)[C@@H](O[C@H]2C[C@@](C)(OC)[C@@H](O)[C@H](C)O2)[C@H](C)[C@@H](O[C@@H]2O[C@H](C)C[C@H](N(C)C)[C@H]2O)[C@](C)(OC)C[C@@H](C)C(=O)[C@H](C)[C@@H](O)[C@]1(C)O [CLR, clarithromycin] | 2
* COc1c(N2C[C@@H]3CCCN[C@@H]3C2)c(F)cc2c(=O)c(C(=O)O)cn(C3CC3)c12 [MXF, moxifloxacin] | 2
* COc1ccc2nccc(NC(=O)C3CCN(CCc4ccc(Cl)cc4)CC3)c2n1 [compound 844] | 40

# lookup: MIC of COc1ccc2nccc(NC(=O)C3CCN(CCc4ccc(C(F)(F)F)cc4)CC3)c2n1 [844-TFM]
6
